Reference for the values: PubChem BioAssay (NCATS)

- Protocol: qHTS profiling of the MIPE4 collection as inhibitors of Plasmodium falciparum (HB3) proliferation (AID 743347);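 note: plate controls were DMSO vehicle wells for no effect and artemisinin wells for full effect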
- Setup conditions: P. falciparum HB3 in erythrocytes, SYBR Green DNA, 72 h; at 28.5 µM (top of the series) unless noted
- Description: Plasmodium falciparum is a virulent malarial parasite that kills 1-2 million people worldwide each year. […] Because mature erythrocytes lack DNA, only Plasmodium-derived DNA is detected. The SYBR Green viability assay was adapted from a method described previously (Plouffe et al., 2008). […] The following morning, fluorescence intensity at 485(14) nm excitation and 535(25) nm emission wavelengths was measured on an EnVision (Perkin Elmer) plate reader. […]
This listing pairs compounds with measured growth, % of control.
Endpoint: growth, % of control

INSERT INTO assay_data (molecule, value_measured) VALUES
  ('CCC1=C[C@@H]2CN(C1)Cc1c([nH]c3ccccc13)[C@@](C(=O)OC)(c1cc3c(cc1OC)N(C)[C@@H]1[C@@](O)(C(=O)OC)[C@H](OC(C)=O)[C@]4(CC)C=CCN5CC[C@]31[C@@H]54)C2', '8.82%'),
  ('COCCOc1ccc2c(c1)ncn2-c1ccc2cccc(N3CCC(N)CC3)c2n1', '4.14%'),
  ('COc1cccc(-c2ccc(NC(=O)C3=C(C(=O)O)CCC3)c(F)c2)c1', '78.8%'),
  ('CNC(=O)c1c(F)cccc1Nc1nc(Nc2cc3c(cc2OC)CCN3C(=O)CN(C)C)nc2[nH]ccc12', '2.27%'),
  ('CCn1nnc2c(N3CCOCC3)nc(-c3ccc(NC(=O)Nc4ccc(C(=O)N5CCN(C)CC5)cc4)cc3)nc21', '5.28%'),
  ('C[C@]1(CO)CN(c2cc(C(=O)Nc3ccc4c(c3)-c3c(c(C(N)=O)nn3-c3ccc(F)cc3)CC4)c(Cl)cn2)C[C@@]1(C)CO', '9.48%'),
  ('CCC(=C(c1ccccc1)c1ccc(OCCN(C)C)cc1)c1ccccc1', '69.7%'),
  ('CC(=O)OCCN1C(=O)c2c(C)nc3ccc(S(=O)(=O)N4CCOCC4)cc3c2C1=O', '666%');

----------
- Tested on: CP315
- Protocol: qHTS profiling for inhibitors of Plasmodium falciparum proliferation (AID 504749); note: nearly all actives have a fitted effect of over 60% in size
- Setup conditions: P. falciparum in erythrocytes, SYBR Green DNA, 72 h; series mostly up to 28.7 µM
Inconclusive results are not listed. The source made the active and inactive calls. Calls follow the shape of the dose curve; as a rule, active = well fitted inhibition curve with a large enough effect; inconclusive = small, poorly fitted or top-dose-only effect; inactive = flat fitted curve, though single readings scatter.
Outcome codes: TRUE for active, FALSE for inactive

INSERT INTO measurements (compound, assigned_class) VALUES
  ('O=C(O)CO.[NH2-].[NH2-].[Pt+2]', 'FALSE'),
  ('COC(=O)C1=C(C)NC(C)=C(C(=O)OCCN2CCN(C(c3ccccc3)c3ccccc3)CC2)C1c1cccc([N+](=O)[O-])c1 (stereo not drawn)', 'TRUE'),
  ('CC=CC1=C(C(=O)O)N2C(=O)[C@H](NC(=O)[C@H](N)c3ccc(O)cc3)[C@@H]2SC1', 'FALSE'),
  ('Nc1ccn([C@@H]2CS[C@H](CO)O2)c(=O)n1', 'FALSE'),
  ('Nc1ccn([C@@H]2O[C@H](CO)[C@H](O)C2(F)F)c(=O)n1', 'TRUE'),
  ('C[C@H]1C[C@@H]2[C@@H]([C@@H](O)C[C@@]3(C)[C@H]2CC[C@]3(O)C(=O)CO)[C@@]2(C)C=CC(=O)C=C12', 'FALSE'),
  ('CN1c2cc(O)c(N=NC(N)=O)cc2CC1S(=O)(=O)O (stereo not drawn)', 'FALSE'),
  ('O=c1[nH]c(=O)n(C2CCCO2)cc1F (stereo not drawn)', 'FALSE');

----------
- Tested on: TAB113
- Protocol: qHTS profiling for inhibitors of Plasmodium falciparum proliferation (AID 504749); note: nearly all actives have a fitted effect of over 60% in size
- Setup conditions: P. falciparum in erythrocytes, SYBR Green DNA, 72 h; series mostly up to 28.7 µM
Results filed as inconclusive are left out. Active and inactive are the calls of the source. The call rests on the fitted dose curve; in most records, active means well fitted inhibition curve with a large enough effect; inconclusive means small, poorly fitted or top-dose-only effect; inactive means flat fitted curve, though single readings scatter.
Outcomes: active, inactive

INSERT INTO assay_data (molecule, assigned_class) VALUES
  ('COC(=O)C1=C(C)NC(C)=C(C(=O)OCCN2CCN(C(c3ccccc3)c3ccccc3)CC2)C1c1cccc([N+](=O)[O-])c1 (configuration not stated)', 'active'),
  ('COC(=O)C[C@](O)(CCCC(C)(C)O)C(=O)O[C@@H]1C(OC)=C[C@]23CCCN2CCc2cc4c(cc2[C@H]13)OCO4', 'active'),
  ('Nc1ccn([C@@H]2CS[C@H](CO)O2)c(=O)n1', 'inactive'),
  ('Nc1ccn([C@@H]2O[C@H](CO)[C@H](O)C2(F)F)c(=O)n1', 'active'),
  ('COc1c(N2C[C@@H]3CCCN[C@H]3C2)c(F)cc2c(=O)c(C(=O)O)cn(C3CC3)c12', 'inactive'),
  ('CN1c2cc(O)c(N=NC(N)=O)cc2CC1S(=O)(=O)O (configuration not stated)', 'inactive'),
  ('C[C@H]1C[C@@H]2[C@@H]([C@@H](O)C[C@@]3(C)[C@H]2CC[C@]3(O)C(=O)CO)[C@@]2(C)C=CC(=O)C=C12', 'inactive'),
  ('Nc1ccc(S(=O)(=O)Nc2ncccn2)cc1', 'inactive'),
  ('CC(C)(C)NC(=O)[C@H]1CN(Cc2cccnc2)CCN1C[C@@H](O)C[C@@H](Cc1ccccc1)C(=O)N[C@H]1c2ccccc2C[C@H]1O', 'active'),
  ('CC=CC1=C(C(=O)O)N2C(=O)[C@H](NC(=O)[C@H](N)c3ccc(O)cc3)[C@@H]2SC1', 'inactive'),
  ('CC1(C)O[C@@H]2C[C@@H]3[C@H]4C[C@@H](F)C5=CC(=O)C=C[C@]5(C)[C@@]4(F)[C@@H](O)C[C@]3(C)[C@]2(C(=O)CO)O1', 'inactive'),
  ('O=c1[nH]c(=O)n(C2CCCO2)cc1F (configuration not stated)', 'inactive');

----------
- Test system: Dd2
- Protocol: qHTS profiling for inhibitors of Plasmodium falciparum proliferation (AID 504749); note: nearly all actives have a fitted effect of over 60% in size; note: potency is the fitted concentration of half-maximal effect
- Setup conditions: P. falciparum in erythrocytes, SYBR Green DNA, 72 h; series mostly up to 28.7 µM
Records with an inconclusive call do not appear. Activity calls are given as the source filed them. The call rests on the fitted dose curve; in most records, active means well fitted inhibition curve with a large enough effect; inconclusive means small, poorly fitted or top-dose-only effect; inactive means flat fitted curve, though single readings scatter.
Endpoint: Potency

INSERT INTO measurements (compound, value_measured) VALUES
  ('COC(=O)C[C@](O)(CCCC(C)(C)O)C(=O)O[C@@H]1C(OC)=C[C@]23CCCN2CCc2cc4c(cc2[C@H]13)OCO4', '12.6 nM (active)'),
  ('Nc1ccn([C@@H]2CS[C@H](CO)O2)c(=O)n1', 'inactive'),
  ('CC1(C)O[C@@H]2C[C@@H]3[C@H]4C[C@@H](F)C5=CC(=O)C=C[C@]5(C)[C@@]4(F)[C@@H](O)C[C@]3(C)[C@]2(C(=O)CO)O1', 'inactive'),
  ('CCC1=C[C@@H]2CN(C1)Cc1c([nH]c3ccccc13)[C@@](C(=O)OC)(c1cc3c(cc1OC)N(C)[C@@H]1[C@@](O)(C(=O)OC)[C@H](OC(C)=O)[C@]4(CC)C=CCN5CC[C@]31[C@@H]54)C2', '891 nM (active)'),
  ('Nc1ccc(S(=O)(=O)Nc2ncccn2)cc1', 'inactive'),
  ('Nc1ccn([C@@H]2O[C@H](CO)[C@H](O)C2(F)F)c(=O)n1', '1780 nM (active)'),
  ('CN1c2cc(O)c(N=NC(N)=O)cc2CC1S(=O)(=O)O (configuration not stated)', 'inactive');

----------
- Protocol: Quantitative High-Throughput drug screen in 47 multiple myeloma cell lines against the NCATS MIPE library collection: SKMM1_PLB cell viability assay (AID 1919863); note: nearly all actives have a fitted effect of over 35% in size
- Setup conditions: SKMM1 myeloma viability, CellTiter-Glo ATP, 48 h; stronger effect = lower value
- From the text: PI: Beverly A. Mock Ph.D. Laboratory of Cancer Biology and Genetics, Center for Cancer Research, National Cancer Institute, National Institute of Health, Bethesda, Maryland […] 5; Detector; 425V; Luminescence; Viewlux PerkinElmer. […] 1. […] Briefly, the corresponding myeloma cell lines were screened in 1,536-well plates with 500 cells, 5-uL per well for inhibition of cell viability (assessed by measuring ATP levels with CellTiterGlo). […]
Records with an inconclusive call do not appear.
Measured viability accompanies every entry in the list below.
Endpoint: viability (%)

INSERT INTO assay_data (molecule, value_measured) VALUES
  ('CC(C)(O)CCc1ccc(OCc2cc(-c3cccc(OC(F)F)c3)c3ncccc3c2)cc1', 123),
  ('Nc1ccn([C@@H]2CS[C@H](CO)O2)c(=O)n1', 127),
  ('O=C(C=Cc1c(C(=O)O)[nH]c2cc(Cl)cc(Cl)c12)Nc1ccccc1', 114),
  ('O=C(O)Cn1nnc(-c2cc(N3CCC(Oc4cc(F)ccc4Br)CC3)no2)n1', 126),
  ('CC=CC1=C(C(=O)O)N2C(=O)[C@H](NC(=O)[C@H](N)c3ccc(O)cc3)[C@@H]2SC1', 117);
